TGI for assorted molecules
System: OVCAR-4 ovarian
Assay: NCI tumour cell line growth inhibition, 48 h

{"MOLECULE": "CCC1(C)N=C(C(N)=O)c2ncn(N=C(C)C)c2N1 (centres undefined)", "TARGET_UNDER_TEST": "OVCAR-4 ovarian", "TGI": "> 100 µM"}
{"MOLECULE": "Cn1c(=O)n(CC(Br)CBr)c(=O)n(CC(Br)CBr)c1=O (centres undefined)", "TARGET_UNDER_TEST": "OVCAR-4 ovarian", "TGI": "> 100 µM"}
{"MOLECULE": "Cn1ccnc1C(=O)/C=C/c1ccc(C(=O)Nc2nc3ccccc3[nH]2)cc1", "TARGET_UNDER_TEST": "OVCAR-4 ovarian", "TGI": "> 25 µM"}
{"MOLECULE": "CC(=O)OC[C@@]12C[C@H]3C(=O)C(C)(C)C[C@H]3[C@]1(C)[C@@H](OC(C)=O)[C@]1(O)[C@H]([C@@H](OC(=O)c3ccccc3)[C@@H](C)[C@H]1OC(C)=O)[C@H]2OC(C)=O", "TARGET_UNDER_TEST": "OVCAR-4 ovarian", "TGI": "> 20 µM"}
{"MOLECULE": "O=c1c([Se]c2coc3ccccc3c2=O)coc2ccccc12", "TARGET_UNDER_TEST": "OVCAR-4 ovarian", "TGI": "32.6 µM"}
{"MOLECULE": "COc1cc([C@H]2Oc3c(c(O)cc4oc(-c5ccccc5)cc(=O)c34)O[C@@H]2CO)ccc1O", "TARGET_UNDER_TEST": "OVCAR-4 ovarian", "TGI": "> 100 µM"}
{"MOLECULE": "COc1ccc(C(O)c2cc3c(N)c(C(=O)Nc4cccc(Br)c4)sc3nc2C)cc1 (centres undefined)", "TARGET_UNDER_TEST": "OVCAR-4 ovarian", "TGI": "> 84.2 µM"}
{"MOLECULE": "CC#CC(=O)N1CCC[C@H]1c1nc(-c2ccc(C(=O)Nc3ccccn3)cc2)c2c(N)nccn12", "TARGET_UNDER_TEST": "OVCAR-4 ovarian", "TGI": "> 100 µM"}
{"MOLECULE": "Cc1cc(C)nc(NS(=O)(=O)c2ccc(NC(=O)c3cccc4cc5ccccc5nc34)cc2)n1", "TARGET_UNDER_TEST": "OVCAR-4 ovarian", "TGI": "> 100 µM"}
